- tested_target: Sialic acid-binding Ig-like lectin 9 (Homo sapiens)
- assay_details: Hs-Siglec9 ALPHAscreen SOP 20170721
- Design: scale not given: direction of the effect not stated beside the values
- condition_info: 10 µM
measurement_kind: Percent Effect
Note: a bare number is incomplete; add the unit.

Consider the reported Percent Effect for these compounds:
> print(dat)
                                   compound  obs.value
1     Cc1noc(C)c1CN(C)C(=O)c1ccc(NC2CC2)nc1      6.74%
2  Cc1cc(C(=O)N2CCCC(c3noc(C)n3)C2)[nH]n1 (configuration not stated)      16.6%
3  CS(=O)(=O)NC1CCCN(C(=O)NCc2cc[nH]n2)C1 (configuration not stated)     -13.5%
4  Cc1nn(CCn2ccnc2-c2cc3n(n2)CCCNC3)c(C)c1Cl      20.4%

Would you be so kind as to report Percent Effect for each listed record?
1. c1ccc(-n2ncc(CNC3CCc4ncnn4C3)n2)cc1 (configuration not stated)
2. Cc1ccc(OCCC(=O)N2CCN(c3cnccn3)CC2)cc1C

Return:
1. 0.298%
2. -2.1%
